- assay.target: ROCK1 (Homo sapiens)
- Construct: Catalytic Domain (amino acids 1-535); GST
- Sequence (Q13464 1-535): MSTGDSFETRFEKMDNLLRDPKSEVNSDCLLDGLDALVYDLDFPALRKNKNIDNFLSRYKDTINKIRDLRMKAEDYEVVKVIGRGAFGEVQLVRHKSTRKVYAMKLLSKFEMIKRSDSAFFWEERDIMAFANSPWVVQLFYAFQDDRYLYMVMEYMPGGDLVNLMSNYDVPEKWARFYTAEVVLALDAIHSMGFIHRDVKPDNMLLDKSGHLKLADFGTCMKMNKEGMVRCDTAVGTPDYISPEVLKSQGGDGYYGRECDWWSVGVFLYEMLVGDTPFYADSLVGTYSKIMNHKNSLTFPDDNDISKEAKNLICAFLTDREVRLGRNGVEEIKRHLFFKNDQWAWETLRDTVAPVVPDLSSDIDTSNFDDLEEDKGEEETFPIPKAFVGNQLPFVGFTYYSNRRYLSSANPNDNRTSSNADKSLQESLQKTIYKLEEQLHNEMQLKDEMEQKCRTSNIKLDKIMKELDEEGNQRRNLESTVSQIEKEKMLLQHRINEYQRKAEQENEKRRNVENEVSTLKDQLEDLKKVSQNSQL
- assay.notes: Kinase assay ROCK1 ([gamma-33P]ATP, S6 kinase peptide substrate)
- protocol.conditions: 20 nM recombinant human ROCK1 catalytic domain, room temperature
Returns: string. Value is 1 if measured IC50 is below 20 µM, and 0 if it is greater than or equal to it.

Ask: Find out if reported IC50 for NCc1ccc(Oc2ccc3c(c2)B(O)OC3)c(Cl)c1 [X] is less than 20 µM
Result: 1

* * *

- assay.target: ROCK2 (Homo sapiens)
- Construct: recombinant human protein (amino acids 11-552); His (N)
- Sequence (O75116 11-552): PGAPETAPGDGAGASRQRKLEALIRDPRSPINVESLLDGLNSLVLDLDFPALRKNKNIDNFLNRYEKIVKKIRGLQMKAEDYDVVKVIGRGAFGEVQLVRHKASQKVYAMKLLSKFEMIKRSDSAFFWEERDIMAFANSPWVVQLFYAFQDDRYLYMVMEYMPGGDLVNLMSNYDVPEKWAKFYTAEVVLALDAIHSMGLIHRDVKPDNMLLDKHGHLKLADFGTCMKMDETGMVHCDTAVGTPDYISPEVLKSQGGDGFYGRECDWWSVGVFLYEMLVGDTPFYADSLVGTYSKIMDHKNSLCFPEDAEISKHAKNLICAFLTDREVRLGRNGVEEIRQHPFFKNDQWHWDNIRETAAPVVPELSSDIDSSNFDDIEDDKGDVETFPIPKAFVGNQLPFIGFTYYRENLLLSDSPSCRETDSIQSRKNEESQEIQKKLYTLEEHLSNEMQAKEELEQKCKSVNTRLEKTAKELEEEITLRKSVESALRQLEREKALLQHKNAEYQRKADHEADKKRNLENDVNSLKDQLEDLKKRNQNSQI
- assay.notes: Kinase assay ROCK2 ([gamma-33P]ATP, S6 kinase peptide substrate)
- protocol.conditions: 20 nM recombinant human ROCK2, room temperature
reported.endpoint: log10(IC50) (log10 of the value in µM)
Please be aware that the numbers have been log10-transformed from IC50 in µM.

Use the examples below as a reference point.
In [3]: df
Out[3]:
                                   compound  reported_endpoint  numeric_readout
0       NCc1cccc(Oc2ccc3c(c2)B(O)OC3)c1 [U]        log10(IC50)             1.60
1         NCc1ccc(Oc2ccc3c(c2)COB3O)cc1 [V]        log10(IC50)             1.00
2    NCc1ccc(Oc2ccc3c(c2)B(O)OC3)c(F)c1 [W]        log10(IC50)            -0.07
3   NCc1ccc(Oc2ccc3c(c2)B(O)OC3)c(Cl)c1 [X]        log10(IC50)             0.32
4  N#Cc1ccc(Oc2ccc3c(c2)COB3O)nc1OC1CCCC1 [Z]        log10(IC50)             0.96

Short answer for NCc1ccc(Oc2ccc3c(c2)B(O)OC3)cc1 [T] : log10(IC50) was 0.49
